# TESTED_TARGET: T1, hPRLR.mFc (soluble dimeric human PRLR) (human)
# T1 construct: dimeric PRLR construct
# T1 chain: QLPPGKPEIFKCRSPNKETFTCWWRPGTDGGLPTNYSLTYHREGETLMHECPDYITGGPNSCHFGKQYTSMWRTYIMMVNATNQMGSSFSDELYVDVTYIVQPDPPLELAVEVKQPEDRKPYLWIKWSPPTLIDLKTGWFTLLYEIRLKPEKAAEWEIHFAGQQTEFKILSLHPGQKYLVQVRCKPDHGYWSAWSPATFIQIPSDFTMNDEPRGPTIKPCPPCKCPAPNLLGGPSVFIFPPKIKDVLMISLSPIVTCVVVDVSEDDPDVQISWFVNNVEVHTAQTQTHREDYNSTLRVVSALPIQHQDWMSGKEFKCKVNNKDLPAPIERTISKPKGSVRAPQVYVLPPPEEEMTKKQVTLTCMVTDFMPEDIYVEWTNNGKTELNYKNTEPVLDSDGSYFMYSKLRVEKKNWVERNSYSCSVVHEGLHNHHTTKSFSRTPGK
# MEASUREMENT_NOTES: SPR Biacore, 25 C, mAb capture
Lab note - cut at 100 pM for Kd: criterion met if strictly below, criterion not met if not.

• H1H6774P (antibody, human IgG1, V domains shown, Human IgG1 Fc (H1H)) VH: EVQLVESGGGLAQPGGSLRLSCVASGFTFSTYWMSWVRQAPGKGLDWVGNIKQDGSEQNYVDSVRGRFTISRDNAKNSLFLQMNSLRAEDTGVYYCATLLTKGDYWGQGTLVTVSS VL: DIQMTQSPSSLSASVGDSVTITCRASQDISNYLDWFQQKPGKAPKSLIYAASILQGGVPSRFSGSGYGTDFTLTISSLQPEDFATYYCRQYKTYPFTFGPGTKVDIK = criterion not met
• H1H6958N2 (antibody, human IgG1, V domains shown, Tested with human IgG1 Fc (H1H); also called H2M6958N2) VH: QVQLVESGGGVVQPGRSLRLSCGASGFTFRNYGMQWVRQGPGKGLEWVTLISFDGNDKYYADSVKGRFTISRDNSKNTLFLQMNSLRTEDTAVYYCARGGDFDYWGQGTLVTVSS VL: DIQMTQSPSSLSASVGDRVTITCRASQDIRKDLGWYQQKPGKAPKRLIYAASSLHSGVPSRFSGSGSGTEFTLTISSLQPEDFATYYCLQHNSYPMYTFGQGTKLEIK = criterion met

Is the reported Kd for H1H6792P (antibody, human IgG1, V domains shown, Human IgG1 Fc (H1H)) VH: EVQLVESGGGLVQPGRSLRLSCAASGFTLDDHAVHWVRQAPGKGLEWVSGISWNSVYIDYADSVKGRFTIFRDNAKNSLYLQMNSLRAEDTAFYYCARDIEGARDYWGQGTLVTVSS VL: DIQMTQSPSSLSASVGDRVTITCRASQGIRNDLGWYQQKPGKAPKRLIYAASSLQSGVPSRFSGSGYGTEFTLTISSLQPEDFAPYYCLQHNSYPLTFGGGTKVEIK strictly below 100 pM? criterion not met

Is the reported Kd for H1H6800P (antibody, human IgG1, V domains shown, Human IgG1 Fc (H1H)) VH: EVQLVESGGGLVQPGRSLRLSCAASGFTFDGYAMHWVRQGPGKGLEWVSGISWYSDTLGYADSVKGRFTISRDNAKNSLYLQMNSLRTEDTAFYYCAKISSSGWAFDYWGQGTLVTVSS VL: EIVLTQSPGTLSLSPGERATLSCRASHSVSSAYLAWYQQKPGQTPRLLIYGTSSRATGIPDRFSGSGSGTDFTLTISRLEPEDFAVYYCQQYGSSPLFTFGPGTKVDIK strictly below 100 pM? criterion not met

Is the reported Kd for H1H6790P (antibody, human IgG1, V domains shown, Human IgG1 Fc (H1H)) VH: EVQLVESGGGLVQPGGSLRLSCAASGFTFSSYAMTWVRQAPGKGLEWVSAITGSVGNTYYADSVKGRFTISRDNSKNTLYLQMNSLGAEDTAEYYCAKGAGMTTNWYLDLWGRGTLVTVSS VL: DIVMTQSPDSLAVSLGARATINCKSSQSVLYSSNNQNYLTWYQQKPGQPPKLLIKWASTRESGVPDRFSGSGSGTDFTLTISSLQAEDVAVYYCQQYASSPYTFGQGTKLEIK strictly below 100 pM? criterion not met
